Reference source: patent US20220411419A1

assay info: in vitro
recorded conditions: human, uninfected SupT1 cells
recorded metric: CC50 at 48 h (µM)
The answer is to be given in µM; state only the numeric part.

Requested field: CC50 at 48 h. Item: CC1(C)Cc2cccc(OCC(=O)N(Cc3ccccc3)c3nc4c(s3)CCCC4)c2O1 0.15

Need CC50 at 48 h of CC1(C)Cc2cccc(OCC(=O)N(Cc3ccncc3)c3nc4c(s3)CCCC4)c2O1 , thanks. 1

Which measured CC50 at 48 h value corresponds to CC1(C)Cc2cccc(OCC(=O)Nc3nc4c(C#N)cccc4s3)c2O1 ? 0.1

For the molecule CC1(C)Cc2cccc(OCC(=O)Nc3nc4c(s3)COCC4)c2O1 , what CC50 at 48 h is on record? 10
